experiment: Solubility
This listing pairs compounds with measured Solubility.
Numbers only here, please. The scale is nM.

// recorded Solubility for `C[C@]1(c2ccc(Cl)cc2Cl)OC[C@@H](COc2ccc(N3CCN(c4ccc(NC(=O)NN)cc4)CC3)cc2)O1` : 1.4

compound CCC(C)n1ncn(-c2ccc(N3CCN(c4ccc(OCC5COC(Cn6cncn6)(c6ccc(Cl)cc6Cl)O5)cc4)CC3)cc2)c1=O (centres unmarked) [ITZ, Itraconazole, reference compound] , Solubility observed: 800

Kindly note the recorded Solubility for `C[C@@]1(c2ccc(Cl)cc2Cl)OC[C@@H](COc2ccc(N3CCN(c4ccc(NC(=O)c5cccnc5)cc4)CC3)cc2)O1` , which is 4.2

Entry under test: `C[C@@]1(c2ccc(Cl)cc2Cl)OC[C@@H](COc2ccc(N3CCN(c4ccc(NC(=O)c5cccc(O)c5)cc4)CC3)cc2)O1` . Its Solubility was 1.4

So for `C[C@]1(c2ccc(Cl)cc2Cl)OC[C@@H](COc2ccc(N3CCN(c4ccc(NC(=O)c5cccnc5)cc4)CC3)cc2)O1` , the logged Solubility turned out to be 6.9

* * *

molecular target: CYP3A4 (Homo sapiens, UniProt P08684); assay: CYP3A4 inhibition; settings: human
Sequence (P08684 whole entry): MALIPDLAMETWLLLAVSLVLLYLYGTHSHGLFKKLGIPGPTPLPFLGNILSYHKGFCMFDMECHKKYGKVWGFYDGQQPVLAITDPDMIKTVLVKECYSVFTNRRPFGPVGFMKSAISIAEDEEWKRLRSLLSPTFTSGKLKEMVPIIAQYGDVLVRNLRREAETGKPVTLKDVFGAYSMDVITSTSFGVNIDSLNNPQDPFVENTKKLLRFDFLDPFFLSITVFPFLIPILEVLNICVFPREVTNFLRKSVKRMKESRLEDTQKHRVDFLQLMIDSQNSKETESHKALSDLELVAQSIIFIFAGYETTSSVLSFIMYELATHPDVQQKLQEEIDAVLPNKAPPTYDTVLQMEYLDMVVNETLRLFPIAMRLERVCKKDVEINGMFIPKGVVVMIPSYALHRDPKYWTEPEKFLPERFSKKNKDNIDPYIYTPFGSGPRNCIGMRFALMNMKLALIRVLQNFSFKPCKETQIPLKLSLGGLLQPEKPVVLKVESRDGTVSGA
Measured metric: IC50

The compound identified as CC[C@@H](C)n1ncn(-c2ccc(N3CCN(c4ccc(OC[C@@H]5CO[C@@](C)(c6ccc(F)cc6F)C5)cc4)CC3)cc2)c1=O [Compound P1] registered its IC50 at > 20 µM

* * *

biological target: UniProt P08684; assay: CYP3A4 inhibition
Measured metric: IC50

1) CC(=O)c1cccc(C(=O)Nc2ccc(N3CCN(c4ccc(OC[C@@H]5CO[C@](C)(c6ccc(Cl)cc6Cl)O5)cc4)CC3)cc2)c1 | > 30 µM
2) C[C@@]1(c2ccc(Cl)cc2Cl)OC[C@@H](COc2ccc(N3CCN(c4ccc(NC(=O)NN)cc4)CC3)cc2)O1 | > 30 µM

Note to self: IC50 recorded for `C[C@]1(c2ccc(Cl)cc2Cl)OC[C@@H](COc2ccc(N3CCN(c4ccc(NC(=O)NN)cc4)CC3)cc2)O1` was > 30 µM
